Listing of recorded IC50 by entry.
Molecular target: recombinant human NaV1.8 stably transfected HEK cells (Homo sapiens)
Construct: expressed in transfected cells; host or cells: HEK cells, stably transfected
Test: Compound profiling on NaV1.8, human NaV1.8 cell line, SyncroPatch384PE automated patch clamp assay (Example 102, first set of compounds, Table 16)
Type: cell-based
Settings: inactivated state block (P2 measurement), human NaV1.8 HEK cells, Table 16 (first set of compounds), read-out: P2IC50
quantity: IC50

1. COc1nc(C)c(Oc2ncc(C(F)(F)F)cc2C(=O)Nc2cccc(S(C)(=N)=O)c2)cc1F (stereo not shown) | 200 to 500 nM
2. CS(=N)(=O)c1cccc(NC(=O)c2cc(C(F)(F)F)cnc2OC23CC(C(F)(F)F)(C2)C3)c1 (stereo not shown) | 200 to 500 nM
3. CC(C)Oc1ccc(Oc2ncc(C(F)(F)F)cc2C(=O)Nc2cccc(S(C)(=N)=O)c2)c(F)c1F (stereo not shown) | ≤ 20 nM
4. COc1c(Oc2nnc(C(F)(F)F)c(C)c2C(=O)Nc2cccc(S(C)(=N)=O)c2)ccc(Cl)c1F (stereo not shown) [Compound 1489] | ≤ 20 nM
5. COc1ccc(-c2nnc(Oc3ccc(C#N)cc3OC)c(C(=O)Nc3cccc([S@@](C)(=N)=O)c3)c2C)cc1 | 40 to 200 nM
6. COc1c(Oc2ncc(Br)cc2C(=O)Nc2ccc(C(N)=O)cc2)ccc(F)c1F | ≤ 20 nM
7. Cc1cc(F)ccc1Oc1nnc(C(F)(F)F)c(N2CCOCC2)c1C(=O)Nc1cccc([S@@](C)(=N)=O)c1 | 200 to 500 nM

###

Biological target: recombinant human NaV1.8 stably transfected HEK cells (Homo sapiens, UniProt Q9Y5Y9)
Construct: expressed in transfected cells; host or cells: HEK cells, stably transfected
Sequence (Q9Y5Y9 whole entry): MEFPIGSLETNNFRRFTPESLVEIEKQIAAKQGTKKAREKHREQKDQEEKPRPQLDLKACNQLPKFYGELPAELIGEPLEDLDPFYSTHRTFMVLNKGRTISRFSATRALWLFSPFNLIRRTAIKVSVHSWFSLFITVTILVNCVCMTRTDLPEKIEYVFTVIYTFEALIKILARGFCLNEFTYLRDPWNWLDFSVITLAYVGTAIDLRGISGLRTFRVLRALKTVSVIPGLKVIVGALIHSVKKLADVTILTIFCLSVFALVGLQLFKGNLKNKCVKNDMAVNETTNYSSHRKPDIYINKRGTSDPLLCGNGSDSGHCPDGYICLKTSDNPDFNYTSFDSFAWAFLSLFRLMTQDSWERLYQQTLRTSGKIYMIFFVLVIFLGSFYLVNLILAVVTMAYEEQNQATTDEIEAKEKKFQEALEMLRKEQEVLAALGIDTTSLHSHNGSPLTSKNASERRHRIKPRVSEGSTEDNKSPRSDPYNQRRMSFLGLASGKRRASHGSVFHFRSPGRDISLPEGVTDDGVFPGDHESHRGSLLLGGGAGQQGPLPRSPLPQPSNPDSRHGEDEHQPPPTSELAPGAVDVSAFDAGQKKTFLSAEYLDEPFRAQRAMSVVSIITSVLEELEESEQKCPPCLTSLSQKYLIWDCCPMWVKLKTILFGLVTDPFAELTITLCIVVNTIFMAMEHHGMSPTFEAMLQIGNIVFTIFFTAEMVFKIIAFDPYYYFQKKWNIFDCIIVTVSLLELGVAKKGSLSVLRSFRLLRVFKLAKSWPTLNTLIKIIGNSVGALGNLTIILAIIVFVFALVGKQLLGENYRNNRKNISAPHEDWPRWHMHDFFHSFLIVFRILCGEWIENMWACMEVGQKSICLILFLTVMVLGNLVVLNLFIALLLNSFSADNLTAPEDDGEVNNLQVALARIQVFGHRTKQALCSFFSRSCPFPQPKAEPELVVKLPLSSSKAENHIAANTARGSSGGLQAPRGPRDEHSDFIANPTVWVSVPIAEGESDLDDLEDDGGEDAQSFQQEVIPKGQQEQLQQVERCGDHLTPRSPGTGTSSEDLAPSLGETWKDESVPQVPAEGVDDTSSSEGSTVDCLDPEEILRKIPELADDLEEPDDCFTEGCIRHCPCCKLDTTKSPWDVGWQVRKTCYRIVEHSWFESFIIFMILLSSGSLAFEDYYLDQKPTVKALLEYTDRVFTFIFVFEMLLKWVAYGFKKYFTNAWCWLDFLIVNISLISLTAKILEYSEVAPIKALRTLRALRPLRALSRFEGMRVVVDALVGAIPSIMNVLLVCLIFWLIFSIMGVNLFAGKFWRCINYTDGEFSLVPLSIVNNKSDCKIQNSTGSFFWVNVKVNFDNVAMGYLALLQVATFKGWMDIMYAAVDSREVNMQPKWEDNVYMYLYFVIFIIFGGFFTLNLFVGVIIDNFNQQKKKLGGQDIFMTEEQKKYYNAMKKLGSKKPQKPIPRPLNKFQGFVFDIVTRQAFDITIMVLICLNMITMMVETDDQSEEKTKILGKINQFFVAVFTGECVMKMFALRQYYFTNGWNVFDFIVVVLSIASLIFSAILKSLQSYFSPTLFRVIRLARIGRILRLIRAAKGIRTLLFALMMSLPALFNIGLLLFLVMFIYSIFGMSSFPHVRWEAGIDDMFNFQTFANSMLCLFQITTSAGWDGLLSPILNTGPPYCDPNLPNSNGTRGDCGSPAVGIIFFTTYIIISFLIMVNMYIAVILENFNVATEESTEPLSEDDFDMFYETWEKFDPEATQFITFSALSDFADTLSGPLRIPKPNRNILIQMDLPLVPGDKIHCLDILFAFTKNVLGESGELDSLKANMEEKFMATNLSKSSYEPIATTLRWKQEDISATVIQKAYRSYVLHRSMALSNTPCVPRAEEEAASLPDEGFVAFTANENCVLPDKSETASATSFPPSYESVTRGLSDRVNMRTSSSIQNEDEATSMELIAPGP
Assay: Compound profiling on NaV1.8, human NaV1.8 cell line, SyncroPatch384PE automated patch clamp assay (Example 102, first set of compounds, Table 16)
Assay type: cell-based
Settings: inactivated state block (P2 measurement), human NaV1.8 HEK cells, Table 16 (first set of compounds), read-out: P2IC50
quantity: IC50

1) CNCC(=O)N=[S@](C)(=O)c1cccc(NC(=O)c2cc(C(F)(F)F)cnc2Oc2ccc(F)cc2C)c1 [Compound 1720] | ≤ 20 nM
2) CS(=O)(=O)c1cccc(NC(=O)c2cc(C(F)(F)F)cnc2OCC23CC(F)(C2)C3)c1 [Compound 1629] | 40 to 200 nM
3) NC(=O)c1cccc(NC(=O)c2cc(C(F)(F)F)cnc2Oc2cnc(C(F)(F)F)nc2)c1 [Compound 1695] | 200 to 500 nM
4) CO/N=C(\C)c1cccc(NC(=O)c2c(Oc3ccc(C#N)cc3OC)nnc(C(F)(F)F)c2C)c1 [Compound 1545] | 200 to 500 nM
5) COc1cc(C#N)ccc1Oc1nnc(-c2ccc(C#N)cc2)c(C)c1C(=O)Nc1ccc[n+]([O-])c1 [Compound 1527] | 20 to 40 nM
6) CS(=O)(=O)c1cccc(NC(=O)c2cc(C(F)(F)F)cnc2Oc2ccc(C#N)nc2)c1 [Compound 1703] | 200 to 500 nM
7) COc1c(Oc2nc(C(F)(F)F)ccc2C(=O)Nc2cccc(S(C)(=N)=O)c2)ccc(F)c1F (stereo not shown) [Compound 1729] | ≤ 20 nM

###

Biological target: recombinant human NaV1.8 stably transfected HEK cells (Homo sapiens, UniProt Q9Y5Y9)
Construct: expressed in transfected cells; host or cells: HEK cells, stably transfected
Experiment: Compound profiling on NaV1.8, human NaV1.8 cell line, SyncroPatch384PE automated patch clamp assay (Example 102, first set of compounds, Table 16)
Format: cell-based
Conditions: inactivated state block (P2 measurement), human NaV1.8 HEK cells, Table 16 (first set of compounds), read-out: P2IC50
Protocol: Compound Profiling on NaV1.8—Human NaV1.8 Cell Line—SyncroPatch384PE Assay Compounds were tested on recombinant human NaV1.8 stably transfected HEK cells using the SyncroPatch384PE system, an automated patch clamp device. […] Compounds were tested in triplicate in 0.1% DMSO and 0.030% Pluronic Acid. […] Compounds were then applied by the SynchroPatch into each well and the current was recorded for five minutes in EC, followed by application of tetracaine to achieve full block at the end of the experiment. […]
pIC50: −log10 of the molar value.
quantity: pIC50

1) NC(=O)c1ccc(NC(=O)c2cc(C(F)(F)F)cnc2Oc2ccc(C(F)F)nc2)cc1 [Compound 1676] | 6.30 to 6.70
2) COc1ccc(Oc2nnc(C(F)(F)F)c(C)c2C(=O)Nc2cccc(S(C)(=O)=O)c2)c(C)n1 [Compound 1428] | 6.70 to 7.40
3) COc1nc(C2CC2)ccc1Oc1nnc(C(F)(F)F)c(C)c1C(=O)Nc1cccc(S(C)(=N)=O)c1 (stereo not drawn) [Compound 1550] | ≥ 7.70
4) Cc1nc(Br)ccc1Oc1nnc(C(F)(F)F)c(C)c1C(=O)Nc1cccc(S(C)(=O)=O)c1 [Compound 1469] | ≥ 7.70
5) CS(=N)(=O)c1cccc(NC(=O)c2cc(C(F)(F)F)cnc2Oc2ccc(-n3ccnc3)cc2)c1 (stereo not drawn) [Compound 1586] | 6.30 to 6.70
6) Cc1cc(F)ccc1Oc1nnc(C(F)(F)F)c(NC2CC2)c1C(=O)Nc1cccc([S@@](C)(=N)=O)c1 [Compound 1522] | 6.30 to 6.70
7) CS(=N)(=O)c1cccc(NC(=O)c2cc(C(F)(F)F)cnc2Oc2ccc(C(F)(F)F)cc2)c1 (stereo not drawn) [Compound 1564] | 6.70 to 7.40
8) CSc1cccc(NC(=O)c2c(Oc3ccc(C#N)cc3C)nnc(C(F)(F)F)c2C)c1 [Compound 14] | 6.30 to 6.70
9) COc1cc(F)ccc1Oc1nnc(C(F)(F)F)c(OC)c1C(=O)Nc1cccc([S@@](C)(=N)=O)c1 [Compound 1517] | 7.40 to 7.70
10) Cc1nc(F)ccc1Oc1ncc(C(F)(F)F)cc1C(=O)Nc1cccc([S@@](C)(=N)=O)c1 (single isomer, unassigned) [Compound 1594] | 6.70 to 7.40
11) COc1cc(C#N)ccc1Oc1ncc(C2CCOCC2)cc1C(=O)Nc1cccc(S(C)(=N)=O)c1 (stereo not drawn) [Compound 1727] | 6.30 to 6.70
12) COc1cc(C#N)ccc1Oc1nnc(-c2cnc(C)nc2)c(C)c1C(=O)Nc1cccc(S(C)(=N)=O)c1 (stereo not drawn) [Compound 1457] | 6.30 to 6.70
13) COc1cc(C#N)ccc1Oc1nnc(C(F)(F)F)c(C)c1C(=O)Nc1ccc(C(N)=O)nc1 [Compound 1539] | 7.40 to 7.70
14) Cc1c(C(F)(F)F)nnc(Oc2ccc(OC(F)(F)F)cc2F)c1C(=O)Nc1cccc(S(C)(=N)=O)c1 (stereo not drawn) [Compound 1495] | ≥ 7.70
15) CC(C)(O)c1ccc(Oc2ncc(C(F)(F)F)cc2C(=O)Nc2cccc(S(C)(=O)=O)c2)c(F)c1 [Compound 1664] | 6.30 to 6.70

###

Target: recombinant human NaV1.8 stably transfected HEK cells (Homo sapiens)
Construct: expressed in transfected cells; host or cells: HEK cells, stably transfected
Experiment: Compound profiling on NaV1.8, human NaV1.8 cell line, SyncroPatch384PE automated patch clamp assay (Example 115, third set of compounds, Table 27)
Format: cell-based
Conditions: inactivated state block (P2 measurement), human NaV1.8 HEK cells, Table 27 (third set of compounds), read-out: P2 IC50
Listing of recorded IC50 by entry.
quantity: IC50

1. CNC(=O)c1ccc(NC(=O)c2cc(C(F)(F)F)nnc2Oc2ccc(F)cc2OC)cc1 | 501 to 1000 nM
2. COc1cc(F)ccc1Oc1nnc(C(F)(F)F)cc1C(=O)Nc1cc(C#N)cnn1 | > 5000 nM
3. CSc1cccc(NC(=O)c2cc(C(F)(F)F)nnc2Oc2ccc(C#N)cc2C)c1 | > 5000 nM
4. COc1cc(F)ccc1Oc1nnc(C(F)(F)F)cc1C(=O)Nc1cccc(-c2nncn2C)c1 | 1000 to 5000 nM
5. COc1cc(F)ccc1Oc1nnc(C(F)(F)F)cc1C(=O)Nc1ccc(C(N)=O)cc1 | ≤ 200 nM
6. NS(=O)(=O)c1cccc(NC(=O)c2cc(C(F)(F)F)nnc2Oc2ccc(F)cc2O)c1 | 501 to 1000 nM
7. Cc1cc(Br)ccc1Oc1nnc(C(F)(F)F)cc1C(=O)Nc1cccc(S(C)(=N)=O)c1 (stereo not shown) | ≤ 200 nM
8. CNC(=O)c1cccc(NC(=O)c2cc(C(F)(F)F)nnc2Oc2ccc(F)cc2OC)c1 | 201 to 500 nM
9. CS(=O)(=O)c1ccc(F)c(NC(=O)c2cc(C(F)(F)F)nnc2Oc2cc(F)ccc2Cl)c1 | 501 to 1000 nM
10. COc1ccc(F)cc1Oc1nnc(C(F)(F)F)cc1C(=O)Nc1cccc(S(C)(=N)=O)c1 (stereo not shown) | 201 to 500 nM
11. COc1cc(F)ccc1Oc1nnc(C(F)(F)F)cc1C(=O)Nc1cccc(S(N)(=O)=O)c1 | ≤ 200 nM
12. COc1cc(NC(=O)c2cc(C(F)(F)F)nnc2Oc2ccc(F)cc2OC)ccn1 | ≤ 200 nM
13. Cc1cc(F)ccc1Oc1nnc(C(F)(F)F)cc1C(=O)Nc1cc[nH]c(=O)c1C | > 5000 nM
14. COc1ccc(F)cc1Oc1nnc(C(F)(F)F)cc1C(=O)Nc1cccc(S(N)(=O)=O)c1 | 201 to 500 nM
15. Cc1ccc(F)cc1Oc1nnc(C(F)(F)F)cc1C(=O)Nc1cccc(S(C)(=O)=O)c1 | 501 to 1000 nM
16. CS(=O)(=O)c1cccc(NC(=O)c2cc(C(F)(F)F)nnc2Oc2ccc(F)cc2Cl)n1 | > 5000 nM

Just for reference, patent US20240336574A1 is where these values come from.
